Tested on: female Sprague Dawley rats
Test: Uterine wet weight in the post-menopausal (ovariectomized rat) model, 4 days of oral dosing
Assay type: in vivo
Settings: 1 mg/kg PO; % increase versus the ovariectomized controls; * p<0.05
Observation type: Uterine Wt. (% Inc.) (%)
Give just the number in %; leave the unit off.

Entry smiles | Numeric value
COC(=O)c1ccc2c(C(=O)c3ccc(OCCN4CCCCC4)cc3)c(-c3ccc(O)cc3)sc2c1.Cl | 19.1
CCCCOC(=O)c1ccc2c(C(=O)c3ccc(OCCN4CCCCC4)cc3)c(-c3ccc(O)cc3)sc2c1 | 16.8

Next item in the queue.
Query string: Write down the reported Uterine Wt. (% Inc.) (system: female Sprague Dawley rats) of `Cl.O=C(O)c1ccc2c(C(=O)c3ccc(OCCN4CCCCC4)cc3)c(-c3ccc(O)cc3)sc2c1`
Result string: 27.2

Reference source for all entries: patent EP0835871B1
